System: 786-0 renal
Assay: NCI-60 one-dose screen, 48 h (100 = growth as untreated, 0 = no growth, -100 = all killed)
Details: 10 µM unless noted
The panel holds about 83,000 compounds, 20% with a hit somewhere; the sample as a whole holds those more often.
Record 1 whenever growth is at 80% or higher; record 0 when lower.

                                   compound  class_name
0  CNC(=O)c1cc(Oc2ccc3nc(NC(=O)Nc4ccc(Cl)c(Cl)c4)sc3c2)ccn1           0
1  Cc1nc2sc(C(=O)Nc3ccc(Cl)cc3)c(N)c2cc1C(O)c1ccccc1 (stereo not given)           0
2  O=C(Cn1nnc2ccccc21)Nc1ccc(-c2nc3ccccc3s2)cc1           1
3    N#C/C(=C\c1ccc(Br)cc1)c1cc2ccccc2[nH]1           1
4     COc1ccc2nc3ccccc3c(NCc3ccc(F)cc3)c2c1           0
5     N=C(N)c1ccc(-c2ccc(-c3ccc(F)cc3)s2)s1           0
6  COc1ccc(C2C(C#N)=C(N)Oc3c2sc2c(Br)cccc32)cc1 (stereo not given)           0
7            CCCCCCCCNc1cc2c3c(c1)CCCN3CCC2           0
8  CCC(CC)(N(CC(=O)O)CC(=O)O)C(CC)(CC)N(CC(=O)O)CC(=O)O           1

Each recorded value in this set is attributed to PubChem BioAssay (NCI).
